assay: inhibitors of TNFa-induced NFkB p65 translocation, primary screen, imaging, HUVEC, MLSMR starter and 10KST1 sets (AID 438); conditions: HUVEC TNFa-induced p65 nuclear translocation; at 2 µM, stronger effect = higher value, 0% TNFa-plus-vehicle, 100% no-TNFa wells;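 note: compound added about 3h40 before a 20 min TNFalpha stimulation; signal is the nuclear over cytoplasmic p65 intensity ratio per well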
Recorded metric: inhibition (%)
Reply with just the number (in %).

>  <Molecule>
CCC(Oc1ccccc1)C(=O)Nc1ccccc1OC (stereo unspecified)

>  <Recorded metric>
inhibition

>  <Unit label>
%

>  <Value observed>
9.2

$$$$
>  <Molecule>
O=C(c1ccco1)N1CCN(C(=O)C2CC(c3ccc(F)cc3)=NO2)CC1 (stereo unspecified)

>  <Recorded metric>
inhibition

>  <Unit label>
%

>  <Value observed>
-12.3

$$$$

Qu. Look at this molecule and give its reported inhibition. "O=C(COc1ccccc1)Nc1nc2ccccc2[nH]1"
Ans. -2.6

Qu. Would you mind telling me what inhibition value was observed for "Cc1ccc(-n2cnnn2)c2cccnc12" ?
Ans. -9.3

Qu. Sample C=CCN1C(=O)CC(C(=O)NC)SC1=Nc1ccc(C(=O)OCC)cc1 (stereo unspecified) — what was its inhibition?
Ans. 12.2

Qu. So what does the record say about inhibition for "Cc1cc(C(=O)Nc2cccnc2)no1" ?
Ans. -10.1
